Values from ChEMBL document CHEMBL1125844

Target: Human immunodeficiency virus type 1 reverse transcriptase (Human immunodeficiency virus 1) (UniProt Q72547)
Assay: In vitro inhibitory activity against human immunodeficiency virus type 1 (HIV-1) reverse transcriptase (RT) at a concentration of 10 ug/mL.
recorded_endpoint: inhibition (%)

> print(dat)
                          chemical.structure  data.value
 1         C=CCN1C(=O)c2cccnc2Nc2ccc(Cl)cc21          79
 2           CCCN1c2ccccc2N(C)C(=O)c2cccnc21          99
 3      CN1C(=O)c2cccnc2N(C(C)(C)C)c2ncccc21          87
 4         CCN1c2cc(N)ccc2N(C)C(=O)c2cccnc21          89
 5            CCN1c2ncccc2C(=O)N(C)c2cccnc21         100
 6  CCN1c2ncccc2C(=O)N(C)c2cc([N+](=O)[O-])cnc21          64
 7        CC(=O)N1c2ccccc2N(C)C(=O)c2cccnc21          72
 8              Cc1ccc2c(n1)Nc1ccccc1C(=O)N2          46
 9        CCN1c2ncccc2C(=O)N(C)c2cc(Cl)cnc21          99
10     CCN1c2ncccc2C(=O)N(C)c2cc(Cl)c(N)nc21          98
11           CCN1C(=O)c2cccnc2N(CC)c2ccccc21          99
12           O=C1Nc2cccnc2N(C2CCC2)c2ncccc21          99
13    CN1C(=O)c2cccnc2N(S(C)(=O)=O)c2ncccc21          77
14            CCN1c2ncccc2NC(=O)c2cc(C)cnc21          89
15        CCN1c2ccccc2N(C)C(=O)c2cc(Cl)cnc21          91
16                CN1c2ccccc2NC(=O)c2cccnc21          75
17  CCN1c2cc([N+](=O)[O-])ccc2N(C)C(=O)c2cccnc21          99
18        CC(=O)N1c2ncccc2C(=O)N(C)c2cccnc21          73
19             C=CCN1C(=O)c2cccnc2Nc2ccccc21          96
20      CN(C)C(=O)CN1C(=O)c2cccnc2Nc2ccccc21          24
21        Cc1ccnc2c1N(C)C(=O)c1cccnc1N2C1CC1          96
22      CCN1c2ncccc2C(=O)N(C)c2cc(C)c(C)nc21         100
23             CCc1ccnc2c1NC(=O)c1cccnc1N2CC         100
24        CCN1C(=O)c2cccc(C)c2N(CC)c2ncccc21          99
25       CC[C@H](C)N1c2ncccc2NC(=O)c2cccnc21          88
26      CCN1c2ccc(C)c(C)c2N(C)C(=O)c2cccnc21          99

###

Target: Human immunodeficiency virus type 1 reverse transcriptase (Human immunodeficiency virus 1)
Assay: In vitro inhibitory activity against human immunodeficiency virus type 1 (HIV-1) reverse transcriptase (RT)
recorded_endpoint: IC50 (nM)

> print(dat)
                          chemical.structure  recorded.endpoint  qualifier  data.value
 1  CCN1c2cc(N=[N+]=[N-])ccc2N(C)C(=O)c2cccnc21               IC50          =         140
 2      CCN1c2cc(C)c(C)cc2N(C)C(=O)c2cccnc21               IC50          =          40
 3           C#CN1c2ccccc2N(C)C(=O)c2cccnc21               IC50          =         650
 4    CCN1c2cc(Cl)c(Cl)cc2N(C)C(=O)c2cccnc21               IC50          =          62
 5         CCN1c2ncccc2C(=O)N(C)c2ccc(C)nc21               IC50          =         170
 6         CCN1c2ncccc2C(=O)N(C)c2cc(C)cnc21               IC50          =         760
 7  CCN1c2ccccc2N(C)C(=O)c2cc(C(F)(F)C(F)(F)F)cnc21               IC50          >        1000
 8            O=C1Nc2cccnc2N(C2CC2)c2ncccc21               IC50          =         450
 9  CCN1c2cc(C(F)(F)F)ccc2N(C)C(=O)c2cccnc21               IC50          =         230
10  CCN(CC)C(=O)c1ccc2c(c1)N(C)C(=O)c1cccnc1N2CC               IC50          >        1000
11            CCN1c2ccccc2C(=O)N(C)c2cccnc21               IC50          =         500
12    CCN1c2ccc(C(=O)O)cc2N(C)C(=O)c2cccnc21               IC50          >        1000
13  CN1C(=O)c2cccnc2N(CC(=O)OC(C)(C)C)c2ccccc21               IC50          >        1000
14           CN1C(=O)c2cccnc2N(CCF)c2ccccc21               IC50          =        1000
15                   O=C1Nc2ccccc2Nc2ncccc21               IC50          >        1000
16         CCN1c2ccccc2N(C)C(=O)c2ccc(F)nc21               IC50          =        2900
17           CCN1c2ncccc2C(=O)Nc2c(Cl)ccnc21               IC50          =          95
18         C=CCN1C(=O)c2cccnc2Nc2ccc(Cl)cc21               IC50          >        1000
